# EC50 listing for each entry below
# Test system: HRV 21
# Test name: Cytopathic effect (CPE) inhibition assay
# Assay type: cell-based, human rhinovirus
# Settings: Human rhinovirus sp., 72 h; host cell HeLa, 3 days, MEM/2% FBS, MTT assay; read-out: EC50 HRV 21

These solved cases illustrate the format of a correct answer.
INSERT INTO results (compound, quantity, test_result) VALUES
  ('CCC(C)C(=O)C(=O)NC12C(=O)c3ccccc3C1(O)Oc1cc(C(C)C)ccc12 (centres unmarked)', 'EC50', '> 10 µg/mL'),
  ('CC(C)c1ccc2c(c1)OC1(O)c3ccccc3C(=O)C21NC(=O)C(=O)CC(=O)c1ccncc1 (centres unmarked)', 'EC50', '> 10 µg/mL'),
  ('CC(C)c1ccc2c(c1)OC1(O)c3ccccc3C(=O)C21NC(=O)CNC(=O)OC(C)(C)C (centres unmarked)', 'EC50', '> 10 µg/mL'),
  ('COc1cc(C(=O)C(=O)NC23C(=O)c4cccc([N+](=O)[O-])c4C2(O)Oc2cc(C(C)C)ccc23)cc(OC)c1OC (centres unmarked)', 'EC50', '> 10 µg/mL'),
  ('CC(=O)C(=O)NC12C(=O)c3ccccc3C1(O)Oc1cc(C)c(C)cc12 (centres unmarked)', 'EC50', '> 8.87 µg/mL');

Under HRV 21: EC50 value of CC(C)c1ccc2c(c1)OC1(O)c3ccccc3C(=O)C21NC(=O)C(=O)c1cccs1 (centres unmarked) ?
> 8.57 µg/mL

Under HRV 21: EC50 value of Cc1cc2c(cc1C)C1(NC(=O)C(=O)c3ccccc3)C(=O)c3ccccc3C1(O)O2 (centres unmarked) ?
> 10 µg/mL

Under HRV 21: EC50 value of COc1cc(C(=O)C(=O)NC23C(=O)c4ccccc4C2(O)Oc2cc(C(C)C)ccc23)cc(OC)c1OC (centres unmarked) ?
> 10 µg/mL

---

# Tested on: HRV 71
# Test name: Cytopathic effect (CPE) inhibition assay
# Type: cell-based, human rhinovirus
# Settings: Human rhinovirus sp., 72 h; host cell HeLa, 3 days, MEM/2% FBS, MTT assay; read-out: EC50 HRV 71
Quantity: EC50

These solved cases illustrate the format of a correct answer.
INSERT INTO assay_data (molecule, assay_target, quantity, test_result) VALUES
  ('CC(C)c1ccc2c(c1)OC1(O)c3ccccc3C(=O)C21NC(=O)C(=O)C(C)(C)C (stereo not shown) [Example 37]', 'HRV 71', 'EC50', '> 10 mg/L'),
  ('CC(=O)C(=O)NC12C(=O)c3c(N)cccc3C1(O)Oc1cc(C(C)C)ccc12 (stereo not shown) [Example 22]', 'HRV 71', 'EC50', '8.5 mg/L'),
  ('Cc1cccc(C)c1NC(=O)C(=O)NC12C(=O)c3ccccc3C1(O)Oc1cc(C(C)C)ccc12 (stereo not shown) [Example 20]', 'HRV 71', 'EC50', '> 10 mg/L');

--- query ---
Entry under review: CCCCCCC(=O)C(=O)NC12C(=O)c3ccccc3C1(O)Oc1cc(C(C)C)ccc12 (stereo not shown) [Example 6] . Reported EC50?
> 8.57 mg/L

---

# CC50 listing for each entry below
# Test name: in vitro
# Settings: human

INSERT INTO results (compound, quantity, test_result) VALUES
  ('CC(C)c1ccc2c(c1)OC1(O)c3ccccc3C(=O)C21NC(=O)C(=O)N1CCN(C)CC1 (stereo not shown)', 'CC50', '> 10 µg/mL'),
  ('CCCNC(=O)OC12C(=O)c3ccccc3C1(O)Oc1cc(C(C)C)ccc12 (stereo not shown)', 'CC50', '> 10 µg/mL'),
  ('CC(C)c1ccc2c(c1)OC1(O)c3c(cccc3[N+](=O)[O-])C(=O)C21NC(=O)C(=O)N(C)C (stereo not shown)', 'CC50', '> 10 µg/mL');

--- query ---
Entry under review: CC(C)c1ccc2c(c1)OC1(O)c3ccccc3C(=O)C21NC(=O)C(=O)Cc1ccccc1[N+](=O)[O-] (stereo not shown) . Reported CC50?
1.76 µg/mL

---

# EC50 listing for each entry below
# Test system: poliovirus 3 (PV3)
# Test name: microbe, parasite or virus in culture
# Assay type: cell-based
# Settings: Enterovirus C, 72 h, read-out: EC50 PV3

INSERT INTO measurements (compound, assay_target, test_result) VALUES
  ('COc1ccc(/C=C/C(=O)C(=O)NC23C(=O)c4ccccc4C2(O)Oc2cc(C(C)C)ccc23)cc1OC (centres unmarked)', 'poliovirus 3 (PV3)', '< 10 µg/mL'),
  ('CC(=N)NC12C(=O)c3ccccc3C1(O)Oc1cc(C(C)C)ccc12 (centres unmarked)', 'poliovirus 3 (PV3)', '> 10 µg/mL'),
  ('CC(C)c1ccc2c(c1)OC1(O)c3ccccc3C(=O)C21NC(=O)C(=O)c1ccco1 (centres unmarked)', 'poliovirus 3 (PV3)', '< 1 µg/mL'),
  ('CC(C)c1ccc2c(c1)OC1(O)c3ccccc3C(=O)C21NC(=O)C(=O)CC(=O)c1ccncc1 (centres unmarked)', 'poliovirus 3 (PV3)', '> 10 µg/mL'),
  ('CCCCCCC(=O)C(=O)NC12C(=O)c3cccc([N+](=O)[O-])c3C1(O)Oc1cc(C(C)C)ccc12 (centres unmarked)', 'poliovirus 3 (PV3)', '< 10 µg/mL'),
  ('CC(C)c1ccc2c(c1)OC1(O)c3ccccc3C(=O)C21NC(=O)C(=O)CCc1ccccc1 (centres unmarked)', 'poliovirus 3 (PV3)', '< 10 µg/mL'),
  ('CC(C)c1ccc2c(c1)OC1(O)c3ccccc3C(=O)C21NC(N)=S (centres unmarked)', 'poliovirus 3 (PV3)', '> 10 µg/mL');

--- query ---
Entry under review: CCCC(=O)C(=O)NC12C(=O)c3c(N)cccc3C1(O)Oc1cc(C(C)C)ccc12 (centres unmarked) . Reported EC50?
< 0.1 µg/mL

---

# Test name: Cytotoxicity (CC50) in multicycle CPE reduction assay, MTS
# Settings: human
# CC50 at 3 days listing for each entry below
Could you give me the number in µg/mL? Just the number is fine.

These solved cases illustrate the format of a correct answer.
INSERT INTO measurements (molecule, test_result) VALUES
  ('CC(C)c1ccc2c(c1)OC1(O)c3ccccc3C(=O)C21NC(=O)C(=O)Cc1ccc(O)cc1 (stereo not drawn)', 9.21),
  ('CC(C)c1ccc2c(c1)OC1(O)c3ccccc3C(=O)C21NC(=O)C(=O)c1cccs1 (stereo not drawn)', 9.02);

--- query ---
Entry under review: CC(C)c1ccc2c(c1)OC1(O)c3cccc(N)c3C(=O)C21NC(=O)C(=O)c1c[nH]c2ccccc12 (stereo not drawn) . Reported CC50 at 3 days?
8.33

---

# Test name: in vitro
# Settings: human
# CC50 listing for each entry below

These solved cases illustrate the format of a correct answer.
INSERT INTO measurements (compound, test_result) VALUES
  ('Cc1cc(C)c(C(=O)C(=O)NC23C(=O)c4cccc([N+](=O)[O-])c4C2(O)Oc2cc(C(C)C)ccc23)c(C)c1 (stereo not shown) [Example 51]', '> 10 µg/mL'),
  ('CCCCCCC(=O)C(=O)NC12C(=O)c3cccc([N+](=O)[O-])c3C1(O)Oc1cc(C(C)C)ccc12 (stereo not shown) [Example 35]', '> 10 µg/mL'),
  ('Cc1cccc(C)c1NC(=O)C(=O)NC12C(=O)c3cccc([N+](=O)[O-])c3C1(O)Oc1cc(C(C)C)ccc12 (stereo not shown) [Example 26]', '> 10 µg/mL');

--- query ---
Entry under review: CC(C)c1ccc2c(c1)OC1(O)c3ccccc3C(=O)C21NC(=O)C(=O)Cc1ccc(O)cc1 (stereo not shown) [Example 9] . Reported CC50?
3.76 µg/mL

---

# Tested on: poliovirus 3 (PV3)
# Test name: microbe, parasite or virus in culture
# Assay type: cell-based
# Settings: Enterovirus C, 72 h, read-out: EC50 PV3
Quantity: EC50

INSERT INTO assay_data (molecule, quantity, test_result) VALUES
  ('CNC(=O)C(=O)NC12C(=O)c3ccccc3C1(O)Oc1cc(C(C)C)ccc12 (stereo not shown)', 'EC50', '< 10 µg/mL'),
  ('CC(C)c1ccc2c(c1)OC1(O)c3c(cccc3[N+](=O)[O-])C(=O)C21NC(=O)C(=O)CCc1ccccc1 (stereo not shown)', 'EC50', '> 10 µg/mL'),
  ('Cc1cc2c(cc1C)C1(NC(=O)C(=O)c3c[nH]c4ccccc34)C(=O)c3ccccc3C1(O)O2 (stereo not shown)', 'EC50', '1.98 µg/mL'),
  ('CC(C)NC(=O)CCC(=O)NC12C(=O)c3ccccc3C1(O)Oc1cc(C(C)C)ccc12 (stereo not shown)', 'EC50', '< 10 µg/mL'),
  ('CC(C)c1ccc2c(c1)OC1(O)c3c(cccc3[N+](=O)[O-])C(=O)C21NC(=O)C(=O)Cc1ccccc1[N+](=O)[O-] (stereo not shown)', 'EC50', '> 9.5 µg/mL');

Entry under review: CC(C)c1ccc2c(c1)OC1(O)c3ccccc3C(=O)C21NC(=O)C(=O)N1CCN(C)CC1 (stereo not shown) . Reported EC50?
< 10 µg/mL

Entry under review: CCOC(=O)C(=O)NC12C(=O)c3cccc([N+](=O)[O-])c3C1(O)Oc1cc(C(C)C)ccc12 (stereo not shown) . Reported EC50?
> 10 µg/mL
